Biological target: human APJ receptor (Homo sapiens (Human))
Sequence (P35414 whole entry): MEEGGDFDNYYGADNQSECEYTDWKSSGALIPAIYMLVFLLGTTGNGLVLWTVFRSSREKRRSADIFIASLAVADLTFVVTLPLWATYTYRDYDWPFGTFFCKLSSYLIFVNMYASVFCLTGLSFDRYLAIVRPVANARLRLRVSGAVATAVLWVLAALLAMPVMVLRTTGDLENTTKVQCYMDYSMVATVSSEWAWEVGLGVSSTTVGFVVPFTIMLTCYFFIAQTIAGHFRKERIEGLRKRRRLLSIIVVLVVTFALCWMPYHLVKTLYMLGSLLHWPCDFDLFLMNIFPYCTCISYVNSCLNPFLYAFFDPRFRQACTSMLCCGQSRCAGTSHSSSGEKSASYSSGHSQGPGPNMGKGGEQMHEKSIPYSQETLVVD
Assay: biochemical
Type: biochemical
Settings: [35S]GTPγS binding, membranes from CHO cells stably expressing human APJ receptor; read-out: Activity hAPJ SPA EC50 IP
measured_quantity: EC50 (nM)
Answers are plain numbers, in nM.

Each compound below has a reported value. Please supply its EC50.
1. COCc1nnc(NS(=O)(=O)[C@@H](C)[C@@H](OC(C)C)c2ncc(Cl)cn2)n1-c1c(OC)ncnc1OC
2. COc1ncnc(OC)c1-n1c(Cc2ccccc2)nnc1NS(=O)(=O)[C@@H](C)[C@H](C)c1ncc(Cl)cn1
3. COc1cccc(OC)c1-n1c(Cc2ccc(F)cc2)nnc1NS(=O)(=O)[C@@H](C)[C@H](OC)c1ncc(C)cn1
4. COCc1nnc(NS(=O)(=O)[C@@H](C)[C@H](C)c2ncc(Cl)cn2)n1-c1c(OC)ncnc1OC
5. COc1ncnc(OC)c1-n1c(CC2CC2)nnc1NS(=O)(=O)[C@@H](C)[C@H](OC)c1ncc(Cl)cn1
6. COc1cccc(OC)c1-n1c(Cc2cccs2)nnc1NS(=O)(=O)[C@@H](C)[C@H](C)c1ncc(Cl)cn1
7. COCc1nnc(NS(=O)(=O)[C@@H](C)[C@H](OC)c2ncc(Cl)cn2)n1C(COC)COC

a:
[12, 120, 940, 88, 7.6, 2.7, 85]

----------
So I've got a bunch of molecules here, and I need their EC50 values.
Target: human APJ receptor (Homo sapiens (Human))
Assay: biochemical
Format: biochemical
Details: [35S]GTPγS binding, membranes from CHO cells stably expressing human APJ receptor; read-out: Activity hAPJ SPA EC50 IP
Answers are plain numbers, in nM.

[
  {
    "item_smiles": "COCc1nnc(NS(=O)(=O)[C@@H](C)[C@@H](OC(C)C)c2ccc(C)cn2)n1-c1c(OC)cccc1OC",
    "EC50 / nM": 12
  },
  {
    "item_smiles": "COc1cccc(OC)c1-n1c(NS(=O)(=O)[C@@H](C)[C@H](C)c2ncc(C)cn2)nnc1[C@H](OC)c1ccccc1",
    "EC50 / nM": 240
  },
  {
    "item_smiles": "COc1cccc(OC)c1-n1c(CCN(C)C)nnc1NS(=O)(=O)[C@@H](C)[C@H](OC)c1ncc(C)cn1",
    "EC50 / nM": 520
  }
]

Each molecule below has a reported value. Please supply its EC50.
1. COc1ncnc(OC)c1-n1c(CC(C)(C)C)nnc1NS(=O)(=O)[C@@H](C)[C@H](C)c1ncc(Cl)cn1
2. COc1cccc(OC)c1-n1c(C)nnc1NS(=O)(=O)[C@@H](C)[C@H](OC)c1ncc(C)cn1

a:
240
120

Each molecule below has a reported value. Please supply its EC50.
1. CCCCc1nnc(NS(=O)(=O)[C@@H](C)[C@H](OC)c2ncc(C)cn2)n1-c1c(OC)cccc1OC
2. COc1ncnc(OC)c1-n1c(CC2CCC2)nnc1NS(=O)(=O)[C@@H](C)[C@H](OC)c1ncc(Cl)cn1

a:
1.7
1.5

----------
Molecular target: human APJ receptor (Homo sapiens (Human))
Test: biochemical
Assay type: biochemical
Conditions: read-out: Activity hAPJ SPA EC50 IP
Please note: EC50 exactly at 0.02 µM is criterion not met. Only values below 0.02 µM get criterion met.

[
  {
    "compound": "CCO[C@H](c1ncc(C)cn1)[C@H](C)S(=O)(=O)Nc1nnc(COC)n1-c1c(OC)cccc1OC [Example 73.0]",
    "label": "criterion not met"
  },
  {
    "compound": "COCc1nnc(NS(=O)(=O)[C@@H](C)[C@H](C)c2ccc(Cl)cn2)n1-c1c(OC)cccc1OC [Example 75.0]",
    "label": "criterion met"
  },
  {
    "compound": "COCc1nnc(NS(=O)(=O)[C@@H](C)[C@H](OC)c2ncc(Cl)cn2)n1-c1c(OC)ncnc1OC [Example 58.0]",
    "label": "criterion not met"
  },
  {
    "compound": "COc1cccc(OC)c1-n1c(COC(C)C)nnc1NS(=O)(=O)[C@@H](C)[C@H](C)c1ncc(Cl)cn1 [Example 161.0]",
    "label": "criterion met"
  }
]

Let's switch to this compound now.
q: hey, is EC50 for COCc1nnc(NS(=O)(=O)[C@@H](C)[C@@H](OC(C)C)c2ncc(C)cn2)n1-c1c(OC)cccc1OC [Example 62.0] lower than 0.02 µM or not?
a: criterion not met
